meta.source: PubChem BioAssay (NCATS)

Tested on: ATS95
Assay: qHTS profiling for inhibitors of Plasmodium falciparum proliferation (AID 504749); note: nearly all actives have a fitted effect of over 60% in size
Conditions: P. falciparum in erythrocytes, SYBR Green DNA, 72 h; series mostly up to 28.7 µM
Inconclusive results are not listed. The source made the active and inactive calls. Calls come from the whole dose curve; as a rule, active = well fitted inhibition curve with a large enough effect; inconclusive = small, poorly fitted or top-dose-only effect; inactive = flat fitted curve, though single readings scatter.
Possible outcomes: Y for active, N for inactive

molecule	target of assay	cat
OCC(O)C(O)C(O)C(O)CO (configuration not stated)	ATS95	N
O=c1ccn(C2OC(COP(=O)(O)OC3C(CO)OC(n4ccc(=O)[nH]c4=O)C3O)C(O)C2O)c(=O)[nH]1 (configuration not stated)	ATS95	N
CC1CCC(O)C/C1=C\C=C1/CCCC2(C)C1CCC2C(C)/C=C/C(C)C(C)C (configuration not stated)	ATS95	N
C/C(=C(/CCO)SS/C(CCO)=C(\C)N(C=O)Cc1cnc(C)nc1N)N(C=O)Cc1cnc(C)nc1N	ATS95	N
C[C@H](CN1c2ccccc2Sc2cccnc21)N(C)C	ATS95	Y
O=C(O)Cc1sc(-c2ccc(Cl)cc2)nc1-c1ccccc1	ATS95	N
CC(CN1CC(=O)NC(=O)C1)N1CC(=O)NC(=O)C1 (configuration not stated)	ATS95	N
CCCC(=O)O[C@]1(C(=O)COC(C)=O)CC[C@H]2C3C[C@H](F)C4=CC(=O)C=CC4(C)[C@@]3(F)[C@@H](O)CC21C (some centres not stated)	ATS95	N
C=C(CC[C@@H](C)[C@H]1CCC2[C@]1(C)CC[C@]13C[C@@]14CCC(OC(=O)/C=C/c1ccc(O)c(OC)c1)C(C)(C)[C@@H]4CC[C@@]23C)C(C)C (some centres not stated)	ATS95	N
CC(=O)N[C@H]1[C@H](O[C@@H]2c3ccc(c(Cl)c3)Oc3cc4cc(c3O[C@@H]3O[C@H](CO)[C@@H](O)[C@H](O)C3C)Oc3ccc(cc3Cl)C[C@H]3NC(=O)[C@@H](N)c5ccc(O)c(c5)Oc5cc(O)cc(c5)[C@H](NC3=O)C(=O)N[C@H]4C(=O)N[C@H]3C(=O)N[C@@H]2C(=O)N[C@@H](C(=O)O)c2cc(O)cc(O[C@H]4O[C@H](CO)[C@@H](O)C(O)[C@@H]4O)c2-c2cc3ccc2O)O[C@H](CO)[C@@H](O)[C@@H]1O (some centres not stated)	ATS95	N
Nc1nc(/C(=C/CC(=O)O)C(=O)NC2C(=O)N3C(C(=O)O)=CCSC23)cs1 (configuration not stated)	ATS95	N
COc1cc(/C=C2\CCC/C(=C\c3ccc(O)c(OC)c3)C2=O)ccc1O	ATS95	Y
COc1cccc(OC)c1C(=O)NC1C(=O)N2C1SC(C)(C)C2C(=O)O (configuration not stated)	ATS95	N
CO/N=C(/C(=O)N[C@@H]1C(=O)N2C(C(=O)O)=C(CSC(=O)c3ccco3)CSC12)c1csc(N)n1 (some centres not stated)	ATS95	N
CC[C@@]1(O)C[C@H](O[C@H]2C[C@@H](N(C)C)[C@@H](O[C@H]3C[C@@H](O)[C@@H](O[C@H]4CCC(=O)[C@@H](C)O4)[C@@H](C)O3)[C@@H](C)O2)c2c(cc3c(c2O)C(=O)c2c(O)cccc2C3=O)[C@H]1C(=O)OC	ATS95	Y
CC1C(=O)C(=O)C=CN1C (configuration not stated)	ATS95	N
NC(=O)C1CC2(NC(=O)NC2=O)c2cc(F)ccc2O1 (configuration not stated)	ATS95	N
NC[C@@H]1O[C@H](OC2[C@@H](CO)O[C@@H](OC3[C@H](O)[C@H](N)C[C@H](N)[C@H]3OC3O[C@H](CO)[C@@H](O)[C@H](O)[C@@H]3N)[C@H]2O)C(N)[C@H](O)[C@@H]1O (some centres not stated)	ATS95	N
Nc1ncn(C2C[C@H](O)[C@@H](CO)O2)c(=O)n1 (some centres not stated)	ATS95	N
CC1OC(OC2CCC3(C)C(CCC4C3CC(O)C3(C)C(C5=CC(=O)OC5)CCC43O)C2)CC(O)C1OC1CC(O)C(OC2CC(O)C(OC3OC(CO)C(O)C(O)C3O)C(C)O2)C(C)O1 (configuration not stated)	ATS95	N
CO/N=C(/C(=O)N[C@@H]1C(=O)N2C(C(=O)O)=C(CSc3cnns3)CS[C@H]12)c1csc(N)n1	ATS95	N
C[C@]12CC[C@@H]3c4ccc(O)cc4CC[C@H]3[C@@H]1C[C@H](O)C2O (some centres not stated)	ATS95	N
CC[C@@]1(O)CC2CN(CCc3c([nH]c4ccccc34)[C@](C(=O)OC)(c3cc4c(cc3OC)N(C)C3[C@@](O)(C(=O)OC)C(OC(C)=O)[C@]5(CC)C=CCN6CC[C@@]43C65)C2)C1 (some centres not stated)	ATS95	Y
Cc1cnc(C(=O)O)cn1	ATS95	N
CNC(=O)C(N)CSC(C)C1=C(C)c2cc3[n-]c(cc4nc(cc5[n-]c(cc1n2)c(C)c5CCC(=O)O)C(CCC(=O)O)=C4C)c(C)c3C(C)SCC(N)C(=O)NC.[Fe+2] (configuration not stated)	ATS95	N
C/C=C1/NN(CCCN2CCN(c3cccc(Cl)c3)CC2)C(=O)N1CCOc1ccccc1	ATS95	N
C[C@@H]1C(SC2Cn3cnc[n+]3C2)=C(C(=O)[O-])N2C(=O)[C@H]([C@@H](C)O)[C@@H]12 (some centres not stated)	ATS95	N
CNC1C(O)C(OC2C(NC(=O)C(O)CN)CC(N)C(OC3OC(CN)C(O)C(O)C3O)C2O)OCC1(C)O (configuration not stated)	ATS95	N
CC(=O)O[C@]1(C(C)=O)CCC2C3CCC4=CC(=O)CCC4(C)C3(F)C(O)CC21C (some centres not stated)	ATS95	N
NC(=O)OC[C@@H]1[C@H](NC(=O)/C(=N/OCC(=O)O)c2csc(N)n2)C(=O)N1S(=O)(=O)O	ATS95	N
C[n+]1c2cc(N)ccc2cc2ccc(N)cc21	ATS95	Y
NC(C(=O)O)c1ccc(O)cc1 (configuration not stated)	ATS95	N

###

Reported activity change, negative = inhibition values follow for various compounds
Assay: AP1 Signaling Pathway (AID 357);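 note: ME-180 reporter cells stimulated with EGF at its EC50 level; % is set by controls: 0 for no effect and ±100 for the full control effect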
Conditions: ME-180 (cervical carcinoma) AP-1-bla reporter, EGF-induced, beta-lactamase ratio, 5 h; at 17.2 µM (top of the series) unless noted
Results filed as inconclusive are left out. Calls of active or inactive are those of the source. Calls follow the shape of the dose curve; as a rule, active = well fitted curve in either direction with a large enough effect (not every such curve was filed as active); inconclusive = small, poorly fitted or top-dose-only effect, or another doubt; inactive = flat fitted curve, though single readings scatter.
readout: activity change, negative = inhibition

> print(dat)
                                    compound                     assay.value
 1       Cc1cc(C)nc(NC2=NCC(=O)N2c2ccccc2)n1                13.1% (inactive)
 2  C=CCN(CC=C)c1nc2ccccc2nc1C(C#N)C(=O)OC(C)C (centres undefined)               -13.3% (inactive)
 3    O=S(=O)(/C=C/c1ccccc1)Nc1ccc2c(c1)OCO2               -20.8% (inactive)
 4                O=c1cc(N2CCCCC2)nc2n1CCCS2               -18.5% (inactive)
 5   CCCCc1nc(N2CCOCC2)c(C#N)c2c1COC(C)(C)C2               -27.7% (inactive)
 6                Clc1ccc(COc2ccccn2)c(Cl)c1                  10% (inactive)
 7  C=CCn1cnc2c(c1=O)c1nc3ccccc3nc1n2-c1ccc(C)cc1               -1.69% (inactive)
 8  CC(=O)C1=C(O)C(=O)N(c2ccc(C(=O)O)cc2)C1c1ccccc1 (centres undefined)                5.75% (inactive)
 9  CCCOC(=O)C1[C@H]2C(=O)N(Cc3ccco3)C[C@]23C=C[C@H]1O3 (some centres undefined)               0.485% (inactive)
10         Cc1nc(NCCCO)c(C#N)c2c1COC(C)(C)C2               -14.2% (inactive)
11  CCC1=C(C(=O)OC)C(c2cc(OC)ccc2OC)C(C#N)=C(N)O1 (centres undefined)               -1.51% (inactive)
12  CCOC(=O)CCc1c(C)c(C#N)c2[nH]c3ccccc3n2c1=O               -16.5% (inactive)
13  CCN(CC)C(=O)COn1c(SCC(=O)N(CC)CC)nc2ccccc2c1=O               -3.71% (inactive)
14                 C/C(=N\O)C(=O)NCCCn1ccnc1                16.3% (inactive)
15  N#C/C(C(=O)N1CCOCC1)=C1/SC(Cc2ccccc2)C(=O)N1c1ccccc1 (centres undefined)                6.74% (inactive)
16  C/C(NC(=O)c1cccs1)=C1\C(=O)C[C@@H]2[C@H]1C2(C)C               -9.31% (inactive)
17  CN=C(c1ccco1)n1c(=S)nc(-c2ccco2)n(C)c1=S                10.9% (inactive)
18                   O=C(O)CCSc1ccc2ccccc2n1                14.9% (inactive)
19  CCOC(=O)c1c(C(F)(F)C(F)(F)C(F)(F)C(F)(F)F)n[nH]c1C                4.08% (inactive)
20  CN(C)C(=O)c1ccc(-c2ccc3ncnc(NC4CC4)c3c2)cc1  -22.9% [at 7.69 µM] (inactive)
21           COCCNc1ncnc2c1cnn2-c1ccc(Cl)cc1               -9.71% (inactive)
22  Cn1c(=O)c2c(nc(Oc3ccc4c(c3)OCO4)n2Cc2ccc(F)cc2)n(C)c1=O                28.8% (inactive)
23            CCc1nc(N2CCCC2)c(C#N)c2c1CCCC2               -16.4% (inactive)
24          CCOC(=O)CSc1nc(C)c(C(C)=O)cc1C#N                8.73% (inactive)
